- assay-info: qHTS assay for MDR1-selective chemotherapeutics: Primary screen using the drug-selected MDR subline cells KB-V1; further: nearly all actives have a fitted effect of over 60% in size
- condition-notes: KB-V1 MDR cells viability, CellTiter-Glo, 72 h; series mostly up to 46.1 µM
- Excerpt: A prime difficulty in effectively treating cancer is the development of cellular resistance to multiple structurally unrelated anticancer drugs, a phenomenon known as multidrug resistance (MDR). […] Numerous strategies to overcome P-gp-mediated MDR have been explored, including the design of drugs that evade recognition and efflux, and development of inhibitors to block efflux and restore drug accumulation. […]
Among all 400,000 compounds or so, about 13,000 (3.2%) were called active. About 18% were inconclusive and are not listed. The call rests on the fitted dose curve; in most records, active means well fitted cell-killing curve with a large enough effect; inconclusive means small, poorly fitted or top-dose-only effect, or effect the other way; inactive means flat fitted curve, though single readings scatter. This excerpt belongs to a sample that is enriched for actives.
Outcome codes: active, inactive

{"compound": "CCC(CC)C(=O)N1CCc2cc(OC)c(OC)cc2C1COc1ccc(F)cc1 (stereo not given)", "answer-label": "inactive"}
{"compound": "O=C(Cn1nnc(-c2ccc3c(c2)OCO3)n1)NCc1ccco1", "answer-label": "inactive"}
{"compound": "COc1ccc(NC(=O)C2(C)Cc3c(-c4cccc(NC(C)=O)c4)ccnc3O2)cc1 (stereo not given)", "answer-label": "inactive"}
{"compound": "CCN1CCN(C(=O)c2ccc(CN(c3ccc(C)c(C)c3)S(C)(=O)=O)cc2)CC1", "answer-label": "inactive"}
{"compound": "O=C(Nc1ccc(OCCO)cc1)c1csc([C@H]2C[C@H](O)[C@@H](CO)O2)n1", "answer-label": "inactive"}
{"compound": "CS(=O)(=O)N(CC(=O)NCc1ccco1)c1ccc2c(c1)OCO2", "answer-label": "inactive"}
{"compound": "CC(=O)Nc1cccc(-c2ccnc3c2CC(C)(C(=O)NCc2ccccc2)O3)c1 (stereo not given)", "answer-label": "active"}
{"compound": "O=C(CCNC(=O)c1ccccc1Cl)NCc1ccco1", "answer-label": "inactive"}
{"compound": "CC(C)(C)c1ccc(S(=O)(=O)NC(=O)C2(C)CCN2C(=O)CC2CC2)cc1 (stereo not given)", "answer-label": "inactive"}
{"compound": "CC(=O)Nc1cccc(-c2ccnc3c2CC(C)(C(=O)NCc2ccco2)O3)c1 (stereo not given)", "answer-label": "inactive"}

* * *

- assay-info: qHTS assay for MDR1-selective chemotherapeutics: Primary screen using the drug-selected MDR subline cells KB-V1; further: nearly all actives have a fitted effect of over 60% in size
- condition-notes: KB-V1 MDR cells viability, CellTiter-Glo, 72 h; series mostly up to 46.1 µM
Among all 400,000 compounds or so, about 13,000 (3.2%) were called active. Another 18% or so got no clear call; they are omitted. Calls follow the shape of the dose curve; as a rule, active = well fitted cell-killing curve with a large enough effect; inconclusive = small, poorly fitted or top-dose-only effect, or effect the other way; inactive = flat fitted curve, though single readings scatter. Many of the other results were omitted from the sample, so actives are more common in it than they were.
Outcome codes: 1 for active, 0 for inactive

{"molecule": "COC(=O)c1c(-c2cccs2)csc1NC(=O)CSc1ncnc2sc(C)c(C)c12", "answer-label": 1}
{"molecule": "COC(=O)C1=CN(c2c(C)cc(C)cc2C)C(N)=C(C#N)C1c1cccc(F)c1 (stereo not given)", "answer-label": 0}
{"molecule": "Cc1sc2ncnc(SCC(=O)NC3CCS(=O)(=O)C3)c2c1C (stereo not given)", "answer-label": 0}
{"molecule": "C[C@H](CO)N1C[C@H](C)[C@@H](CN(C)C(=O)C2CCCCC2)OCc2cnnn2CCCC1=O", "answer-label": 0}
{"molecule": "CCOC(=O)c1c(NC(=O)CSc2nccc(=O)[nH]2)sc(C)c1C", "answer-label": 0}

* * *

- assay-info: qHTS assay for MDR1-selective chemotherapeutics: Primary screen using the drug-selected MDR subline cells KB-V1; further: nearly all actives have a fitted effect of over 60% in size; further: potency means the concentration at half of the fitted maximal effect
- condition-notes: KB-V1 MDR cells viability, CellTiter-Glo, 72 h; series mostly up to 46.1 µM
- Source text: A prime difficulty in effectively treating cancer is the development of cellular resistance to multiple structurally unrelated anticancer drugs, a phenomenon known as multidrug resistance (MDR). […] Numerous strategies to overcome P-gp-mediated MDR have been explored, including the design of drugs that evade recognition and efflux, and development of inhibitors to block efflux and restore drug accumulation. […]
The whole screen tested about 400,000 compounds, of which about 13,000 (3.2%) were called active. Roughly 18% stayed inconclusive and do not appear here. The list comes from a sample in which actives are over-represented; it also holds close analogues and randomly drawn compounds.

{"compound": "Cc1ccc(S(=O)(=O)N2CC3C(=O)C[C@@H](c4ccccc4Cl)N(S(=O)(=O)c4ccc(C)cc4)C3CC2c2ccccc2)cc1 (stereo not given in full)", "Potency": "inactive"}
{"compound": "Cc1onc(-c2ccc(F)cc2F)c1C(=O)Nc1cccc(C(F)(F)F)c1", "Potency": "inactive"}
{"compound": "CN(C(=O)CSc1nnnn1-c1ccccc1)C1CCCCC1", "Potency": "inactive"}
{"compound": "Cc1nccn1-c1ccc(NC(=O)[C@H]2O[C@@H](n3ccc(=O)[nH]c3=O)[C@H](O)[C@@H]2O)cc1", "Potency": "inactive"}
{"compound": "CN(C(=O)COc1ncnc2c1cnn2-c1ccccc1)C1CCCCC1", "Potency": "9.2 µM (active)"}

* * *

- assay-info: qHTS assay for MDR1-selective chemotherapeutics: Primary screen using the drug-selected MDR subline cells KB-V1; further: nearly all actives have a fitted effect of over 60% in size
- condition-notes: KB-V1 MDR cells viability, CellTiter-Glo, 72 h; series mostly up to 46.1 µM
The campaign covered roughly 400,000 compounds. About 13,000 (3.2%) were called active. Roughly 18% stayed inconclusive and do not appear here. Calls come from the whole dose curve; as a rule, active = well fitted cell-killing curve with a large enough effect; inconclusive = small, poorly fitted or top-dose-only effect, or effect the other way; inactive = flat fitted curve, though single readings scatter. Many of the other results were omitted from the sample, so actives are more common in it than they were.
Outcome codes: active, inactive

{"compound": "COc1ccc(S(=O)(=O)N/N=C\\c2ccc(OC)c(COc3ccc(C)cc3[N+](=O)[O-])c2)cc1", "answer-label": "inactive"}
{"compound": "O=C(CSc1nccn1Cc1ccc(Cl)cc1)NCc1ccccc1", "answer-label": "inactive"}
{"compound": "CC(C)(C)OC(=O)NNc1c2ccccc2nc2ccccc12", "answer-label": "active"}
{"compound": "COC(=O)c1ccc2nc(-c3ccc(C)cc3)c(Cc3ccc(OC)cc3C)n2c1", "answer-label": "inactive"}
{"compound": "O=C(CSc1ncn[nH]1)Nc1nc2c(F)c(F)c(F)cc2s1", "answer-label": "inactive"}
{"compound": "Cc1ccc(C(=O)NNC(=O)OC(C)(C)C)c(Cl)c1", "answer-label": "inactive"}
{"compound": "C[C@H]1CN([C@@H](C)CO)C(=O)CCCn2cc(nn2)CO[C@@H]1CN(C)S(=O)(=O)c1ccccc1C#N", "answer-label": "inactive"}
{"compound": "COc1ccc(C(=O)Oc2cc(/C=N/NS(=O)(=O)c3ccc(C)cc3)ccc2OC)cc1", "answer-label": "active"}
{"compound": "CC(C)C[C@@H]1Cc2[nH][nH]c(=O)c2[C@H](CCc2ccccc2)O1", "answer-label": "inactive"}
{"compound": "OCCNc1nc(Nc2ccc(Cl)c(Cl)c2)nc2ccccc12", "answer-label": "active"}
{"compound": "COCCNS(=O)(=O)c1cc(-c2nn3c(C)nnc3c3ccccc23)ccc1C", "answer-label": "inactive"}
{"compound": "CCOc1ccc(NC(=O)C2CCN(S(=O)(=O)c3cc(-c4noc(C)n4)ccc3C)CC2)cc1", "answer-label": "inactive"}
{"compound": "CCNC(=O)CC1C(=O)N(c2ccc(F)cc2)C(=O)N1Cc1cccs1 (configuration not stated)", "answer-label": "inactive"}
{"compound": "Nc1nc(NCCCN2CCOCC2)nc(Nc2ccccc2)c1[N+](=O)[O-]", "answer-label": "active"}
{"compound": "Cc1ccc(NC(=O)/C(=C/c2ccc([N+](=O)[O-])cc2)NC(=O)c2ccccc2)cc1", "answer-label": "inactive"}
{"compound": "CCOC(=O)C1CCCN(C(=O)c2cccc(S(=O)(=O)N3CCOCC3)c2)C1 (configuration not stated)", "answer-label": "inactive"}
{"compound": "COC(=O)c1ccc2nc(-c3ccccc3)c(Cc3ccc(OC)cc3C)n2c1", "answer-label": "active"}
{"compound": "O=C(CNCCC1=CCCCC1)Nc1ccccc1N1CCCCCC1", "answer-label": "active"}
{"compound": "CN(C)c1nc(Nc2ccc(Cl)c(Cl)c2)nc(N(C)C)n1", "answer-label": "inactive"}
{"compound": "COC(=O)c1ccccc1S(=O)(=O)Nc1ccc(OC)cc1", "answer-label": "inactive"}
{"compound": "O=C(N/N=C/c1cccc(Br)c1)c1ccc(N2CCCC2=O)cc1", "answer-label": "active"}
{"compound": "Cn1cccc1/C=N/NC(=O)CNc1cccc2ccccc12", "answer-label": "inactive"}
{"compound": "COc1ccc(OC)c(Cc2cnc3nc(N)nc(N)c3c2C)c1", "answer-label": "active"}
{"compound": "Nc1[nH]c(C(=O)c2ccccc2)c(-c2ccc(Br)cc2)c1C(=O)NC1CC1", "answer-label": "inactive"}
{"compound": "Cn1c(=O)n(C)c2cc(/C=N/NC(=O)c3cccc(Br)c3)ccc21", "answer-label": "inactive"}
{"compound": "CCOc1ccc(S(=O)(=O)N2CCCC(C(=O)N3CCC(C(N)=O)CC3)C2)cc1Cl (configuration not stated)", "answer-label": "inactive"}
{"compound": "CC1CCN(C(=O)c2ccc(CSc3ccc(Cl)cc3)cc2)CC1", "answer-label": "active"}
{"compound": "COC(=O)c1ccc2nc(-c3cccc(Br)c3)c(Cc3ccc(OC)cc3C)n2c1", "answer-label": "inactive"}
{"compound": "Cc1cccc(C)c1N1CCN(S(=O)(=O)N2CCOCC2)CC1", "answer-label": "active"}
{"compound": "Fc1ccc2c(c1)C(c1cccnc1)=NNC(c1cccs1)=N2", "answer-label": "active"}
{"compound": "CCOC(=O)COc1ccc([N+](=O)[O-])cc1", "answer-label": "inactive"}
{"compound": "COC(=O)C[C@H]1C[C@@H]2c3cc(N(C)C)ccc3O[C@@H]2[C@H](CO)O1", "answer-label": "inactive"}
{"compound": "CCN(CC)CCN(C)C(c1ccnc2ccccc12)c1nnnn1-c1ccc2c(c1)OCCO2 (configuration not stated)", "answer-label": "inactive"}
{"compound": "COc1cc(CNc2ncnc3c2ncn3[C@H]2CN(Cc3cccs3)C[C@@H](CO)O2)cc(OC)c1OC", "answer-label": "inactive"}
{"compound": "Cc1cccc(/C=N/NC(=O)CNc2cccc3ccccc23)n1", "answer-label": "active"}
{"compound": "O=C(COC(=O)CCc1c[nH]c2ccccc12)Nc1cccc(Cl)c1", "answer-label": "inactive"}
{"compound": "CC1CN(c2nc(Nc3ccccc3)nc(N)c2[N+](=O)[O-])CC(C)O1 (configuration not stated)", "answer-label": "inactive"}
{"compound": "Cc1cc(C)c2c(=O)n3c(nc2c1)C(CC(C)C)NC(=O)c1cc2ccccc2cc1-3 (configuration not stated)", "answer-label": "inactive"}
{"compound": "COc1ccc(N2C(=O)C(CC(=O)Nc3ccc(F)cc3)N(CCc3cccs3)C2=O)cc1 (configuration not stated)", "answer-label": "active"}
{"compound": "O=S(=O)(N1CCOCC1)N1CCN(c2ccccc2F)CC1", "answer-label": "inactive"}
{"compound": "COC(=O)c1sccc1S(=O)(=O)N(CC(=O)Nc1ccc(C)c(F)c1)c1ccc(C)c(C)c1", "answer-label": "inactive"}
{"compound": "COC(=O)c1ccc2nc(-c3ccc(OC)c(OC)c3)c(Cc3ccccc3)n2c1", "answer-label": "inactive"}
